Reported Burkin Assay in Myotubes (signal relative to DMSO) values for the following compounds.
System: α7 integrin (LacZ reporter in α7+/LacZ myotubes)
Experiment: Myotube α7 integrin FDG assay (Burkin assay in myotubes, 96-well)
Assay type: cell-based, mouse
Conditions: 40 uM, myotubes
Form: value (number only, do not type unit).

compound="O=Cc1ccc(C(=O)OCC(=O)N2CCCC2)cc1 [MLS001172577-01]" numeric_readout=0.7324
compound="COc1ccccc1CNS(=O)(=O)c1ccc(Cl)s1 [MLS001175449-01]" numeric_readout=0.8041
compound="Cc1ccccc1C(=O)Nc1scc(-c2ccc(Br)cc2)c1C(=O)O [MLS001179267-01]" numeric_readout=0.5111
compound="C=CCN(CC=C)C(=O)c1ccc(OC2CCN(S(=O)(=O)N(C)C)CC2)cc1 [MLS000693729-01]" numeric_readout=1.056
compound="COc1ccc(-n2c(SCC(=O)Nc3cccc(C(=O)O)c3)nnc2-c2ccco2)cc1 [MLS001215742-01]" numeric_readout=0.9687

# lookup: Burkin Assay in Myotubes (signal relative to DMSO) of C/C(=N\Nc1nncc2ccccc12)c1cccc(OC(F)F)c1 [MLS001175556-01]
0.7514

Need Burkin Assay in Myotubes (signal relative to DMSO) of CCOc1ccc(-n2c(C)c(C(=O)O)c3cc(OC)ccc32)cc1 [MLS001194551-01] , thanks.
1.281

I have this compound here, S=c1[nH]nc(Cn2cnc3ccccc32)n1-c1ccccc1 [MLS000707281-01] , and I need its recorded Burkin Assay in Myotubes (signal relative to DMSO).
1.141

Look at this compound and give its reported Burkin Assay in Myotubes (signal relative to DMSO). O=Cc1cn(Cc2ccc(F)cc2Cl)c2ccccc12 [MLS000676974-01]
0.5447

For the compound shown here, COc1ccc(S(=O)(=O)N2CCN(C(=O)C3CCC3)CC2)cc1 [MLS001139515-01] , give the reported Burkin Assay in Myotubes (signal relative to DMSO).
1.013

Item Cc1ccc(N(CCC(=O)O)S(=O)(=O)c2cccc(C(F)(F)F)c2)cc1 [MLS000775793-01] has what recorded Burkin Assay in Myotubes (signal relative to DMSO)?
0.9508

Fill in the blank: the reported Burkin Assay in Myotubes (signal relative to DMSO) of C/C(=N/OC(=O)CC(C)C)c1cc(-c2ccc(Cl)cc2)no1 [MLS000721030-01] is ____.
1.205

Please give the measured Burkin Assay in Myotubes (signal relative to DMSO) for this compound: Cc1cc(C)cc(-n2nnc(C(=O)NCc3ccccc3Cl)c2N)c1 [MLS000094770-01]
0.7119

----------
Parameter: CMV-LACZ in Myotubes, signal relative to DMSO. Scope: all listed entries.
Test system: β-galactosidase in CMV-LacZ C2C12 myotubes
Assay: CMV-LacZ secondary screen in C2C12 myotubes (β-Gal stabilizing assay)
Format: cell-based, mouse
Conditions: 40 uM; C2C12 CMV-LacZ myotubes; fold relative to DMSO
Answer as a number with no unit attached.

Return reported CMV-LACZ in Myotubes, signal relative to DMSO; argument: `Cc1ccc(N(CCC(=O)O)S(=O)(=O)c2cccc(C(F)(F)F)c2)cc1`
1.021

# query: CMV-LACZ in Myotubes, signal relative to DMSO of entry `CNC(=O)CSc1nnc(-c2ccc3c(c2)OCO3)n1C`
0.9129

Requested read-out: CMV-LACZ in Myotubes, signal relative to DMSO. Entry: COC(=O)Cn1c(=O)c2c(nc3n2CC(C)CN3Cc2ccccc2)n(C)c1=O (stereo not drawn)
0.9867

Given the compound `O=C(O)CCCNC(=O)CCn1nnc2ccccc2c1=O` , what is its reported CMV-LACZ in Myotubes, signal relative to DMSO?
1.0655

For the compound `CCCCN(CC)Cc1ccc(CNC(=S)Nc2ccccc2F)o1` , what CMV-LACZ in Myotubes, signal relative to DMSO is on record?
0.9788

Reported CMV-LACZ in Myotubes, signal relative to DMSO for `COC(=O)C(=O)C/C(=N/Nc1ncnc2ccccc12)c1ccc(Cl)cc1` : what is it?
1.108

Query (compound): `Cn1c(-c2ccccc2)cc2ccccc21` ; field requested: CMV-LACZ in Myotubes, signal relative to DMSO
0.9930

Which CMV-LACZ in Myotubes, signal relative to DMSO reading was recorded for the compound `COc1ccc(CNC(=O)COC(=O)CCc2c[nH]c3ccccc23)cc1` ?
1.2

Item under review: CC1Cc2ccccc2N1C(=O)CSc1nnc(N)s1 (stereo not drawn) . Reported CMV-LACZ in Myotubes, signal relative to DMSO?
0.9190
